Experiment: Concentration in blood of male beagle dogs
Type: in vivo
Settings: dog, plasma, 30 mg/kg, 30 mg/kg water suspension, 2 hr.
Experimental: A water suspension of test compound was administered at the dose of 30 mg/kg to the overnight fasted male Wister rats and male beagle dogs, and after a predetermined period of time, blood was collected from said animals to obtain plasma. 2 to 3 Milliliters of 0.1 N-NaOH and 2 ml of CHCl3 were added to 1 ml of the obtained plasma, and the mixture was shaken and extracted in a shaker for 2 hours, and after centrifugal separation, the organic layer was washed with 2 ml of 0.1 N-HCl. […]
measurementType: concentration at 2 h (ng/mL)
One number for each entry, in ng/mL.

Past entries and their recorded results:
molecule: CC1CCCCC1N(C)C(=O)CCCOc1ccc2[nH]c(=O)ccc2c1 (stereo not shown)
measurementType: concentration at 2 h
reportedValue: 310
--
molecule: CN(C(=O)CCCOc1ccc2[nH]c(=O)ccc2c1)C1CCCCC1
measurementType: concentration at 2 h
reportedValue: 280
--
molecule: CN(C(=O)CCCOc1cccc2c1CCC(=O)N2)C1CCCCC1
measurementType: concentration at 2 h
reportedValue: 290

With those in mind, consider the next molecule.
Look up and state reported concentration at 2 h for O=C1CCc2cc(OCCCC(=O)N(C3CCCCC3)C3CCCCC3)ccc2N1
230

---

I'd appreciate it if you could supply inhibition at 1 µM (stock) values for the items below.
System: rabbit platelet
Assay: ADP-induced aggregation in rabbit platelets (AG-II Aggregometer)
Format: cell-based
Settings: Oryctolagus cuniculus, Platelet; 10^-6 mole; read-out: Inhibition effect on ADP-induced aggregation in rabbit platelet

compound: CN(C)C(=O)COc1cccc2c1CCC(=O)N2 [compound 43, reference compound]
inhibition at 1 µM (stock): 8%

compound: O=C(O)CCCOc1ccc2[nH]c(=O)ccc2c1 [compound 39, 6-(3-Carboxypropoxy)carbostyril, reference compound]
inhibition at 1 µM (stock): 5%

compound: O=C1CCc2cc(OCCCC(=O)N(C3CCCCC3)C3CCCCC3)ccc2N1
inhibition at 1 µM (stock): 12.6%

compound: COc1ccc(CCN(C)C(=O)CCCOc2ccc3[nH]c(=O)ccc3c2)cc1OC
inhibition at 1 µM (stock): 6.9%

compound: CCCNC(=O)CC(C)COc1ccc2c(c1)CCC(=O)N2 (stereo not drawn) [compound 45, reference compound]
inhibition at 1 µM (stock): 9%

compound: O=C1CCc2c(cccc2OCC(=O)N2CCOCC2)N1 [compound 42, reference compound]
inhibition at 1 µM (stock): 0%

compound: O=C1CCc2cc(OCCCC(=O)OC3CCCCC3)ccc2N1 [compound 40, reference compound]
inhibition at 1 µM (stock): 7%

compound: CCN(C(=O)CCCOc1ccc2[nH]c(=O)ccc2c1)c1ccccc1
inhibition at 1 µM (stock): 13.5%

compound: CCOC(=O)CCCOc1ccc2[nH]c(=O)ccc2c1 [compound 34, 6-(3-Ethoxycarbonylpropoxy)carbostyril, reference compound]
inhibition at 1 µM (stock): 25%

compound: O=C(CCCOc1ccc2[nH]c(=O)ccc2c1)N(Cc1ccccc1)C1CCCCC1
inhibition at 1 µM (stock): 61.2%

Please look at the items below and tell me inhibition at 1 µM (stock) for each one, in order.
1. CN(C(=O)CCCOc1ccc2c(c1)CCC(=O)N2)C1CCCCC1
2. O=C(CCCOc1ccc2[nH]c(=O)ccc2c1)NC1CCCCC1
3. CC(COc1ccc2[nH]c(=O)ccc2c1)CC(=O)N(C)C1CCCCC1 (stereo not drawn)
4. CCN(C(=O)CCCOc1c(Cl)cc(Cl)c2c1CCC(=O)N2)c1ccccc1
5. CC(C)NC(=O)CCOc1cccc2c1CCC(=O)N2 [compound 41, reference compound]
6. CCOC(=O)CCCOc1ccc2c(c1)CCC(=O)N2 [compound 29, reference compound]

1: 10.8%; 2: 18%; 3: 5.8%; 4: 12.7%; 5: 7%; 6: 10%

# batch: return inhibition at 1 µM (stock) for each of the 4 compounds below
1. CN(C(=O)CCCOc1ccc2[nH]c(=O)ccc2c1)C1CCC(O)CC1 (stereo not drawn)
2. O=C1CCc2cc(OCCCC(=O)N(c3ccccc3)c3ccccc3)ccc2N1
3. CCCCN(C(=O)CCCCOc1ccc2c(c1)CCC(=O)N2)C1CCCCC1
4. CC(=O)OC1CCC(N(C)C(=O)CCCOc2ccc3[nH]c(=O)ccc3c2)CC1 (stereo not drawn)

54.3%
13.4%
10.5%
20.8%

Field: inhibition at 1 µM (stock). Fill in for each record below.
1. CN(C(=O)CCCOc1cccc2c1CCC(=O)N2)C1CCCCC1
2. C=CCN(C(=O)CCCOc1ccc2c(c1)CCC(=O)N2)C1CCCCC1
3. CC1CCCCC1N(C)C(=O)CCCOc1ccc2[nH]c(=O)ccc2c1 (stereo not drawn)
4. CCN1C(=O)CCc2c(OCCCC(=O)NCc3ccccc3)cccc21 [compound 44, reference compound]
5. COc1ccc(CCN(Cc2ccccc2)C(=O)CCCOc2ccc3c(c2)CCC(=O)N3)cc1OC
6. O=C(CCCOc1ccc2[nH]c(=O)ccc2c1)N(c1ccccc1)C1CCCCC1
7. CC(C)(Oc1ccc2c(c1)CCC(=O)N2)C(=O)O [compound 38, reference compound]

8.7%
15.1%
42.4%
0%
16.9%
12.3%
3%

---

Test system: rabbit platelet
Assay: ADP-induced aggregation in rabbit platelets (AG-II Aggregometer)
Assay type: cell-based
Settings: Oryctolagus cuniculus, Platelet; 10^-4 mole; read-out: Inhibition effect on ADP-induced aggregation in rabbit platelet
measurementType: inhibition at 100 µM (stock) (%)
Answers are plain numbers, in %.

Completed entries (count: 4):
compound: O=C1CCc2cc(OCCCC(=O)OC3CCCCC3)ccc2N1 [compound 40, reference compound]
readoutUnits: %
inhibition at 100 µM (stock): 28
//
compound: CC(=O)Oc1ccccc1C(=O)O [compound 46, Aspirin, reference compound]
readoutUnits: %
inhibition at 100 µM (stock): 7
//
compound: CC1CCCCC1N(C)C(=O)CCCOc1ccc2[nH]c(=O)ccc2c1 (centres unmarked)
readoutUnits: %
inhibition at 100 µM (stock): 100
//
compound: CN(C(=O)CCCOc1ccc(O)c2c1CCC(=O)N2)C1CCCCC1
readoutUnits: %
inhibition at 100 µM (stock): 53.9

Could you now consider this next compound?
Return inhibition at 100 µM (stock) (reported value) for this compound: CN(C)C(=O)COc1cccc2c1CCC(=O)N2 [compound 43, reference compound]
22

---

Could you please report measured inhibition at 10 µM (stock) for the items listed next?
Test system: rabbit platelet
Test: Collagen-induced aggregation in rabbit platelets (AG-II Aggregometer)
Type: cell-based
Settings: Oryctolagus cuniculus, Platelet; 10^-5 mole; read-out: Inhibition effect on collagen induced aggregation in rabbit platelet
Numbers only, in %.

Answered cases to consult:
compound: CN(C)C(=O)COc1cccc2c1CCC(=O)N2 [compound 43, reference compound]
readoutUnits: %
inhibition at 10 µM (stock): 13
--
compound: O=C(O)CCCOc1ccc2[nH]c(=O)ccc2c1 [compound 39, 6-(3-Carboxypropoxy)carbostyril, reference compound]
readoutUnits: %
inhibition at 10 µM (stock): 15
--
compound: CC(C)(Oc1ccc2c(c1)CCC(=O)N2)C(=O)O [compound 38, reference compound]
readoutUnits: %
inhibition at 10 µM (stock): 3
--
compound: C=CCN(C(=O)CCCOc1ccc2c(c1)CCC(=O)N2)C1CCCCC1 [compound 14]
readoutUnits: %
inhibition at 10 µM (stock): 42.3
--
compound: CN(C(=O)CCCOc1ccc2[nH]c(=O)ccc2c1Cl)C1CCCCC1 [compound 6]
readoutUnits: %
inhibition at 10 µM (stock): 53.3
--
compound: CC(COc1ccc2[nH]c(=O)ccc2c1)CC(=O)N(C)C1CCCCC1 (centres unmarked) [compound 9]
readoutUnits: %
inhibition at 10 µM (stock): 100

Please look at the items below and tell me inhibition at 10 µM (stock) for each one, in order.
1. O=C(CCCOc1ccc2[nH]c(=O)ccc2c1)N(Cc1ccccc1)C1CCCCC1 [compound 5]
2. O=C(CCCOc1ccc2c(c1)CCC(=O)N2)Nc1ccccc1 [compound 19]

91.8
17.4

---

Assay: Concentration in blood of male Wister rats
Format: in vivo
Conditions: rat, plasma, 30 mg/kg, 30 mg/kg water suspension, 8 hr.
measurementType: concentration at 8 h (ng/mL)
Give bare numbers, in ng/mL.

smilesData: CN(C(=O)CCCOc1cccc2c1CCC(=O)N2)C1CCCCC1
concentration at 8 h (ng/mL): 390

// moving on: another record for concentration at 8 h
Quick one: give measured concentration at 8 h for O=C1CCc2cc(OCCCC(=O)N(C3CCCCC3)C3CCCCC3)ccc2N1
560

---

Assay: Concentration in blood of male beagle dogs
Assay type: in vivo
Conditions: dog, plasma, 30 mg/kg, 30 mg/kg water suspension, 12 hr.
measurementType: concentration at 12 h

Take a look at these entries with their results.
compound: CC1CCCCC1N(C)C(=O)CCCOc1ccc2[nH]c(=O)ccc2c1 (stereo not shown)
concentration at 12 h: 50 ng/mL
--
compound: CN(C(=O)CCCOc1cccc2c1CCC(=O)N2)C1CCCCC1
concentration at 12 h: 70 ng/mL
--
compound: O=C1CCc2cc(OCCCC(=O)N(C3CCCCC3)C3CCCCC3)ccc2N1
concentration at 12 h: 60 ng/mL

For the compound CN(C(=O)CCCOc1ccc2[nH]c(=O)ccc2c1)C1CCCCC1 , give its measured concentration at 12 h value.
40 ng/mL
